# System: E. coli
# Test method notes: MIC assay, E. coli
# Assay type: cell-based
compounds and their reported MIC (μg/mL) E. coli
Readout: MIC (μg/mL) E. coli

Compound	Readout	Result
CCOC(=O)NC1CCN(c2cc(O)c3nc4c5c6c7c(C)c(O)c5c(=O)c(c-4oc3c2)NC(=O)/C(C)=C\C=C\[C@H](C)[C@H](O)[C@@H](C)[C@@H](O)[C@@H](C)[C@H](OC(C)=O)[C@H](C)[C@@H](OC)/C=C/O[C@@](C)(O7)C6=O)CC1	MIC (μg/mL) E. coli	>8 µg/mL
CO[C@H]1/C=C/O[C@@]2(C)Oc3c(C)c(O)c4c(=O)c(c5sc6cc(N7CCN8CCC[C@H]8C7)ccc6nc-5c4c3C2=O)NC(=O)/C(C)=C\C=C\[C@H](C)[C@H](O)[C@@H](C)[C@@H](O)[C@@H](C)[C@H](OC(C)=O)[C@@H]1C	MIC (μg/mL) E. coli	4 µg/mL
CO[C@H]1/C=C/O[C@@]2(C)Oc3c(C)c(O)c4c(=O)c(c5oc6cc(N7CCC(NS(=O)(=O)C(F)(F)F)CC7)cc(O)c6nc-5c4c3C2=O)NC(=O)/C(C)=C\C=C\[C@H](C)[C@H](O)[C@@H](C)[C@@H](O)[C@@H](C)[C@H](OC(C)=O)[C@@H]1C	MIC (μg/mL) E. coli	>8 µg/mL
CO[C@H]1/C=C/O[C@@]2(C)Oc3c(C)c(O)c4c(=O)c(c5oc6cc(N7C[C@H]8CCCN(C(C)=O)[C@H]8C7)cc(O)c6nc-5c4c3C2=O)NC(=O)/C(C)=C\C=C\[C@H](C)[C@H](O)[C@@H](C)[C@@H](O)[C@@H](C)[C@H](O)[C@@H]1C	MIC (μg/mL) E. coli	>8 µg/mL
CO[C@H]1/C=C/O[C@@]2(C)Oc3c(C)c(O)c4c(=O)c(c5oc6cc(N7CCC(N)CC7)cc(O)c6nc-5c4c3C2=O)NC(=O)/C(C)=C\C=C\[C@H](C)[C@H](O)[C@@H](C)[C@@H](O)[C@@H](C)[C@H](O)[C@@H]1C	MIC (μg/mL) E. coli	>8 µg/mL
CO[C@H]1/C=C/O[C@@]2(C)Oc3c(C)c(O)c4c(=O)c(c5oc6cc(N7CCC(CNC(C)=O)CC7)cc(O)c6nc-5c4c3C2=O)NC(=O)/C(C)=C\C=C\[C@H](C)[C@H](O)[C@@H](C)[C@@H](O)[C@@H](C)[C@H](OC(C)=O)[C@@H]1C	MIC (μg/mL) E. coli	8 µg/mL
COC1C=COC2(C)Oc3c(C)c(O)c4c(=O)c(c5oc6cc(N7CCC(C)(NC(C)=O)CC7)cc(O)c6nc-5c4c3C2=O)NC(=O)C(C)=CC=CC(C)C(O)C(C)C(O)C(C)C(O)C1C (centres unmarked)	MIC (μg/mL) E. coli	>8 µg/mL
CCOC(=O)NC1CCN(c2cc(O)c3nc4c5c6c7c(C)c(O)c5c(=O)c(c-4oc3c2)NC(=O)C(C)=CC=CC(C)C(O)C(C)C(O)C(C)C(O)C(C)C(OC)C=COC(C)(O7)C6=O)CC1 (centres unmarked)	MIC (μg/mL) E. coli	4 µg/mL

---

# System: E. coli
# Test method notes: MIC assay, E. coli
# Assay type: cell-based

Compound	Qualifier	MIC (μg/mL) E. coli, µg/mL
CO[C@H]1/C=C/O[C@@]2(C)Oc3c(C)c(O)c4c(=O)c(c5oc6cc(N7CCC(C)(N(C)C)CC7)cc(O)c6nc-5c4c3C2=O)NC(=O)/C(C)=C\C=C\[C@H](C)[C@H](O)[C@@H](C)[C@@H](O)[C@@H](C)[C@H](OC(C)=O)[C@@H]1C [Compound 71]	=	4
CO[C@H]1/C=C/O[C@@]2(C)Oc3c(C)c(O)c4c(=O)c(c5oc6cc(N7C[C@H]8CCCN(C(C)=O)[C@H]8C7)cc(O)c6nc-5c4c3C2=O)NC(=O)/C(C)=C\C=C\[C@H](C)[C@H](O)[C@@H](C)[C@@H](O)[C@@H](C)[C@H](OC(C)=O)[C@@H]1C [Compound 47]	>	8

---

# Test system: E. coli
# Test method notes: MIC assay, E. coli
# Format: cell-based

Compound	Qualifier	MIC (μg/mL) E. coli / µg/mL
CCOC(=O)NC1C2CN(c3cc(O)c4nc5c6c7c8c(C)c(O)c6c(=O)c(c-5oc4c3)NC(=O)C(C)=CC=CC(C)C(O)C(C)C(O)C(C)C(OC(C)=O)C(C)C(OC)C=COC(C)(O8)C7=O)CC21 (centres unmarked)	=	4
CO[C@H]1/C=C/O[C@@]2(C)Oc3c(C)c(O)c4c(=O)c(c5oc6cc(N7CCC(CCO)CC7)cc(O)c6nc-5c4c3C2=O)NC(=O)/C(C)=C\C=C\[C@H](C)[C@H](O)[C@@H](C)[C@@H](O)[C@@H](C)[C@H](OC(C)=O)[C@@H]1C	>	8

---

# System: S. aureus
# Test method notes: MIC assay, S. aureus
# Type: cell-based
Lab note: cut-off is 0.01 µg/mL. Strictly less in MIC (μg/mL) S. aureus is met. Exactly 0.01 µg/mL or more is not met.

Molecule	Target system	Group label
CO[C@H]1/C=C/O[C@@]2(C)Oc3c(C)c(O)c4c(=O)c(c5oc6cc(N7CC[C@@H](N(C)C)C7)cc(O)c6nc-5c4c3C2=O)NC(=O)/C(C)=C\C=C\[C@H](C)[C@H](O)[C@@H](C)[C@@H](O)[C@@H](C)[C@H](OC(C)=O)[C@@H]1C	S. aureus	met
CO[C@H]1/C=C/O[C@@]2(C)Oc3c(C)c(O)c4c(=O)c(c5oc6cc(N7CCC(NC(C)=O)CC7)cc(O)c6nc-5c4c3C2=O)NC(=O)/C(C)=C\C=C\[C@H](C)[C@H](O)[C@@H](C)[C@@H](O)[C@@H](C)[C@H](OC(C)=O)[C@@H]1C	S. aureus	not met
CO[C@H]1/C=C/O[C@@]2(C)Oc3c(C)c(O)c4c(=O)c(c5oc6cc(N7CCC(NC(=O)SC)CC7)cc(O)c6nc-5c4c3C2=O)NC(=O)/C(C)=C\C=C\[C@H](C)[C@H](O)[C@@H](C)[C@@H](O)[C@@H](C)[C@H](OC(C)=O)[C@@H]1C	S. aureus	not met
CCOC(=O)NC1CCN(c2cc(O)c3nc4c5c6c7c(C)c(O)c5c(=O)c(c-4oc3c2)NC(=O)C(C)=CC=CC(C)C(O)C(C)C(O)C(C)C(O)C(C)C(OC)C=COC(C)(O7)C6=O)CC1 (centres unmarked)	S. aureus	not met
COCCOC(=O)NC1CCN(c2cc(O)c3nc4c5c6c7c(C)c(O)c5c(=O)c(c-4oc3c2)NC(=O)/C(C)=C\C=C\[C@H](C)[C@H](O)[C@@H](C)[C@@H](O)[C@@H](C)[C@H](OC(C)=O)[C@H](C)[C@@H](OC)/C=C/O[C@@](C)(O7)C6=O)CC1	S. aureus	not met
CO[C@H]1/C=C/O[C@@]2(C)Oc3c(C)c(O)c4c(=O)c(c5oc6cc(N7CCC(NC(=O)OC(C)(C)C)CC7)cc(O)c6nc-5c4c3C2=O)NC(=O)/C(C)=C\C=C\[C@H](C)[C@H](O)[C@@H](C)[C@@H](O)[C@@H](C)[C@H](OC(C)=O)[C@@H]1C	S. aureus	met
CCCNC(=O)NC1CCN(c2cc(O)c3nc4c5c6c7c(C)c(O)c5c(=O)c(c-4oc3c2)NC(=O)C(C)=CC=CC(C)C(O)C(C)C(O)C(C)C(O)C(C)C(OC)C=COC(C)(O7)C6=O)CC1 (centres unmarked)	S. aureus	met
CO[C@H]1/C=C/O[C@@]2(C)Oc3c(C)c(O)c4c(=O)c(c5oc6cc(N7CCC(CCO)CC7)cc(O)c6nc-5c4c3C2=O)NC(=O)/C(C)=C\C=C\[C@H](C)[C@H](O)[C@@H](C)[C@@H](O)[C@@H](C)[C@H](O)[C@@H]1C	S. aureus	met

---

# Test system: E. coli
# Test method notes: MIC assay, E. coli
# Assay type: cell-based

Compound	Target system	Unit annotation	Qualifier	MIC (μg/mL) E. coli
COC1C=COC2(C)Oc3c(C)c(O)c4c(=O)c(c5oc6cc(N7CC8C(N)C8C7)cc(O)c6nc-5c4c3C2=O)NC(=O)C(C)=CC=CC(C)C(O)C(C)C(O)C(C)C(OC(C)=O)C1C (stereo not shown)	E. coli	µg/mL	>	8
CO[C@H]1/C=C/O[C@@]2(C)Oc3c(C)c(O)c4c(=O)c(c5sc6cc(N7C[C@@H](C)N(CC8CC8)C[C@@H]7C)ccc6nc-5c4c3C2=O)NC(=O)/C(C)=C\C=C\[C@H](C)[C@H](O)[C@@H](C)[C@@H](O)[C@@H](C)[C@H](OC(C)=O)[C@@H]1C	E. coli	µg/mL	>	8
COC1C=COC2(C)Oc3c(C)c(O)c4c(=O)c(c5oc6cc(N7CCC(NC(=O)OC(C)C)CC7)cc(O)c6nc-5c4c3C2=O)NC(=O)C(C)=CC=CC(C)C(O)C(C)C(O)C(C)C(O)C1C (stereo not shown)	E. coli	µg/mL	>	8
CO[C@H]1/C=C/O[C@@]2(C)Oc3c(C)c(O)c4c(=O)c(c5oc6cc(N7CCC(N(C)C)CC7)cc(O)c6nc-5c4c3C2=O)NC(=O)/C(C)=C\C=C\[C@H](C)[C@H](O)[C@@H](C)[C@@H](O)[C@@H](C)[C@H](O)[C@@H]1C	E. coli	µg/mL	=	4
CCNC(=O)NC1CCN(c2cc(O)c3nc4c5c6c7c(C)c(O)c5c(=O)c(c-4oc3c2)NC(=O)/C(C)=C\C=C\[C@H](C)[C@H](O)[C@@H](C)[C@@H](O)[C@@H](C)[C@H](OC(C)=O)[C@H](C)[C@@H](OC)/C=C/O[C@@](C)(O7)C6=O)CC1	E. coli	µg/mL	=	8
CCOC(=O)N1CCCC2CN(c3cc(O)c4nc5c6c7c8c(C)c(O)c6c(=O)c(c-5oc4c3)NC(=O)C(C)=CC=CC(C)C(O)C(C)C(O)C(C)C(O)C(C)C(OC)C=COC(C)(O8)C7=O)CC21 (stereo not shown)	E. coli	µg/mL	=	8
CCCC(=O)NC1CCN(c2cc(O)c3nc4c5c6c7c(C)c(O)c5c(=O)c(c-4oc3c2)NC(=O)C(C)=CC=CC(C)C(O)C(C)C(O)C(C)C(O)C(C)C(OC)C=COC(C)(O7)C6=O)CC1 (stereo not shown)	E. coli	µg/mL	>	8
CO[C@H]1/C=C/O[C@@]2(C)Oc3c(C)c(O)c4c(=O)c(c5oc6cc(N7CCC(NC(=O)OC(C)C)CC7)cc(O)c6nc-5c4c3C2=O)NC(=O)/C(C)=C\C=C\[C@H](C)[C@H](O)[C@@H](C)[C@@H](O)[C@@H](C)[C@H](OC(C)=O)[C@@H]1C	E. coli	µg/mL	>	8
CO[C@H]1/C=C/O[C@@]2(C)Oc3c(C)c(O)c4c(=O)c(c5oc6cc(N7CCC(NC(=O)SC)CC7)cc(O)c6nc-5c4c3C2=O)NC(=O)/C(C)=C\C=C\[C@H](C)[C@H](O)[C@@H](C)[C@@H](O)[C@@H](C)[C@H](OC(C)=O)[C@@H]1C	E. coli	µg/mL	=	8
CO[C@H]1/C=C/O[C@@]2(C)Oc3c(C)c(O)c4c(=O)c(c5oc6cc(N7C[C@@H]8CCCN[C@@H]8C7)cc(O)c6nc-5c4c3C2=O)NC(=O)/C(C)=C\C=C\[C@H](C)[C@H](O)[C@@H](C)[C@@H](O)[C@@H](C)[C@H](O)[C@@H]1C	E. coli	µg/mL	>	8
